ASSAY SYSTEM: hKAT-II (Homo sapiens, UniProt Q8N5Z0)
Construct: hexahistidine tag (N); made in house; host or cells: E. coli BL21(DE3)-RIL
Sequence (Q8N5Z0 30-425): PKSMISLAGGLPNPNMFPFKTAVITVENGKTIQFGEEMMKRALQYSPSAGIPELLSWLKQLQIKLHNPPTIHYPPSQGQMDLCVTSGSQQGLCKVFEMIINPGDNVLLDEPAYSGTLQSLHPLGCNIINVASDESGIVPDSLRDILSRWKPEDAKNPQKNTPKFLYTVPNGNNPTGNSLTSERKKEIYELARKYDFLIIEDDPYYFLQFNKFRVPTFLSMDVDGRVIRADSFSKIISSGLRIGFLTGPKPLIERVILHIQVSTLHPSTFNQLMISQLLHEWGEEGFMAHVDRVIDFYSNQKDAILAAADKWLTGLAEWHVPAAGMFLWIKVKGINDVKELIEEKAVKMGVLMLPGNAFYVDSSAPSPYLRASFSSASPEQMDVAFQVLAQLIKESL
ASSAY DETAILS: Coupled fluorescence in vitro inhibition assay of hKAT-II
Assay type: biochemical
SETUP CONDITIONS: c = 1 µM; 30 min pre-incubation with enzyme; 20 nM hKAT-II; mean ± SEM
Label TRUE for high-side Inhibitory Activity [%I ± SEM] c = 1 µM (at or above 20 %I) and FALSE for low-side Inhibitory Activity [%I ± SEM] c = 1 µM (below it).

Identify whether the reported Inhibitory Activity [%I ± SEM] c = 1 µM of the following molecule is 20 %I or greater: N[C@@H](Cc1ccccc1)C(=O)c1cn(-c2ccccc2)nn1 [Compound 21b] FALSE

---
Identify whether the reported Inhibitory Activity [%I ± SEM] c = 1 µM of the following molecule is 20 %I or greater: COc1ccc(-n2cc(C(=O)[C@H](C)N)nn2)cc1 [Compound 26a] TRUE
